This section presents variants with their documented protein stability index values.
B1: TRIM43 (parent)
chain: FCDMDKSLLCLLCSNSQEHGAHKH

Variants of: B1
PROTOCOL_DESCRIPTION: protein stability index of a GFP-peptide fusion (GPS, HEK-293T) (PSI 1-6); higher = more stable;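 note: lentivirally expressed fusions sorted by FACS into six bins by GFP to DsRed ratio, PSI derived from sequencing read proportions per bin multiplied by bin number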
TEST_CONDITIONS: c terminus: a fixed tail appended
READOUT_TYPE: protein stability index

{"MUTATION_ANNOTATION": "C2K", "READOUT_TYPE": "protein stability index", "OBS_VALUE": 3.4}
{"MUTATION_ANNOTATION": "D3A", "READOUT_TYPE": "protein stability index", "OBS_VALUE": 2.15}
{"MUTATION_ANNOTATION": "C10D", "READOUT_TYPE": "protein stability index", "OBS_VALUE": 2.18}
{"MUTATION_ANNOTATION": "D5T", "READOUT_TYPE": "protein stability index", "OBS_VALUE": 2.34}
{"MUTATION_ANNOTATION": "H19A", "READOUT_TYPE": "protein stability index", "OBS_VALUE": 1.91}
{"MUTATION_ANNOTATION": "S16I", "READOUT_TYPE": "protein stability index", "OBS_VALUE": 1.57}
{"MUTATION_ANNOTATION": "L9M", "READOUT_TYPE": "protein stability index", "OBS_VALUE": 1.92}
{"MUTATION_ANNOTATION": "D3N", "READOUT_TYPE": "protein stability index", "OBS_VALUE": 1.75}
{"MUTATION_ANNOTATION": "C2F", "READOUT_TYPE": "protein stability index", "OBS_VALUE": 2.23}
{"MUTATION_ANNOTATION": "S14I", "READOUT_TYPE": "protein stability index", "OBS_VALUE": 1.52}
{"MUTATION_ANNOTATION": "A21F", "READOUT_TYPE": "protein stability index", "OBS_VALUE": 2.1}
